Listed compounds paired with reported MIC
system: MRSA (ATCC 33591); assay: Broth microdilution MIC, MRSA ATCC 33591; type: cell-based; details: Staphylococcus aureus; Tables 2-4; standardized conditions

CCC1C(c2ccc(C(F)(F)F)cc2)=C(O)C(=O)N1CCSCCN1C(=O)C(O)=C(c2ccc(C(F)(F)F)cc2)C1CC (centres unmarked)    > 256 µg/mL

# context switch: different compound, same MIC
Q: Param readout= MIC; system= MRSA (ATCC 33591); entry= O=C1C(O)=C(c2ccc(C(F)(F)F)cc2)C(C2CC2)N1c1ccc(Br)cc1 (centres unmarked) ; returns value.
A: 64 µg/mL

* * *

Reported values of MIC for individual entries
test system: MRSA (ATCC 33591); assay: Broth microdilution MIC, MRSA ATCC 33591; format: cell-based; conditions: Staphylococcus aureus; Table 1, Compounds 1-15; preliminary data, modified non-standard conditions (pH 9), solubility-limited
Express your answer in mg/L, writing the number without its unit.

CCC1C(c2ccc(C(F)(F)F)cc2)=C(O)C(=O)N1c1ccc(Br)cc1 (stereo not shown)    32

Please turn your attention to the following entry.
Q: // query MIC value for entry CCC1C(c2ccc(C(F)(F)F)cc2)=C(O)C(=O)N1c1ccc(F)cc1 (stereo not shown)
A: 16

* * *

test system: MRSA (ATCC 33591); experiment: Broth microdilution MIC, MRSA ATCC 33591; format: cell-based; settings: Staphylococcus aureus; Tables 2-4; standardized conditions
Documented MIC across a set of compounds
The figure you give is taken to be in µg/mL; do not add the unit.

Here are 6 compounds together with their reported answers.
CCC1C(c2ccc(C(F)(F)F)cc2)=C(O)C(=O)N1c1ccc(N)cc1 (stereo not shown)    64
CCC1C(c2ccc(C(F)(F)F)cc2)=C(O)C(=O)N1CCN(CCN)CCN1C(=O)C(O)=C(c2ccc(C(F)(F)F)cc2)C1CC (stereo not shown)    64
CCC1C(c2ccc(C(F)(F)F)cc2)=C(O)C(=O)N1C1CCC(N)CC1 (stereo not shown)    128
O=C1C(O)=C(c2ccc(C(F)(F)F)cc2)C([C@H](O)c2ccccc2)N1c1ccc(C(F)(F)F)cc1 (stereo partly shown)    2
CCC1C(c2ccc(C(F)(F)F)cc2)=C(O)C(=O)N1CCN(CCN)CCN (stereo not shown)    64
O=C1C(O)=C(c2ccc(C(F)(F)F)cc2)C([C@H](O)c2ccccc2)N1c1ccc(F)cc1 (stereo partly shown)    128

Consider the additional compound presented here.
Q: Form field: reported MIC of O=C1C(O)=C(c2ccc(C(F)(F)F)cc2)C([C@H](O)c2ccccc2)N1c1ccccc1 (stereo partly shown)
A: 32

* * *

# MIC per record follows
test system: MRSA (ATCC 33591); experiment: Broth microdilution MIC, MRSA ATCC 33591; assay type: cell-based; conditions: Staphylococcus aureus; Tables 2-4; standardized conditions

Q: I would be grateful if you could share the reported MIC for O=C1C(O)=C(c2ccc(C(F)(F)F)cc2)C(C(O)CO)N1c1ccc(Br)cc1 (stereo not shown) [Compound 49] .
A: > 128 µg/mL

Q: Continue with O=C1C(O)=C(c2ccc(C(F)(F)F)cc2)C([C@H](O)c2ccccc2)N1c1ccc(Br)cc1 (stereo partly shown) [Compound 47]
A: 8 µg/mL

Q: Do the same for O=C1C(O)=C(c2ccc(C(F)(F)F)cc2)C(CCl)N1c1ccc(Br)cc1 (stereo not shown) [Compound 44] please
A: 64 µg/mL

Q: Next entry: COc1ccc(N2C(=O)C(O)=C(c3ccc(C(F)(F)F)cc3)C2[C@H](O)c2ccccc2)cc1 (stereo partly shown) [Compound 52]
A: > 128 µg/mL

* * *

tested on: MRSA (ATCC BAA 44) biofilm; assay: Inhibition of MRSA biofilm formation (crystal violet); type: cell-based; settings: Staphylococcus aureus; 40 μM; 24 h; Table 1
Metric: inhibition at 40 µM (%)
# output: bare number, implied unit %

Example results:
O=C1C(O)=C(c2ccc(C(F)(F)F)cc2)CN1c1ccccc1    8
CCCCCN1C(=O)C(O)=C(c2ccc(C(F)(F)F)cc2)C1CC (stereo not shown)    63
CC1C(c2ccc(C(F)(F)F)cc2)=C(O)C(=O)N1c1ccccc1 (stereo not shown)    72

// switching to the query compound
Q: Query: inhibition at 40 µM; subject: CCC1C(c2ccc(C(F)(F)F)cc2)=C(O)C(=O)N1Cc1cccs1 (stereo not shown)
A: 79

* * *

tested on: MRSA (ATCC 33591); test: Broth microdilution MIC, MRSA ATCC 33591; type: cell-based; conditions: Staphylococcus aureus; Tables 2-4; standardized conditions
Metric: MIC

These recorded examples may help you get a feel for the data.
CCC1C(c2ccc(C(F)(F)F)cc2)=C(O)C(=O)N1CCOCCN (stereo not drawn)    > 128 µg/mL
CC1C(c2ccc(C(F)(F)F)cc2)=C(O)C(=O)N1c1ccc(Br)cc1 (stereo not drawn)    32 µg/mL
CCC1C(c2ccc(C(F)(F)F)cc2)=C(O)C(=O)N1CCN(CCN1C(=O)C(O)=C(c2ccc(C(F)(F)F)cc2)C1CC)CCN1C(=O)C(O)=C(c2ccc(C(F)(F)F)cc2)C1CC (stereo not drawn)    > 128 µg/mL

Q: # query: MIC of entry CCC1C(c2ccc(C(F)(F)F)cc2)=C(O)C(=O)N1CCN1C(=O)C(O)=C(c2ccc(C(F)(F)F)cc2)C1CC (stereo not drawn)
A: > 128 µg/mL

Q: And what about the compound CCC1C(c2ccc(C(F)(F)F)cc2)=C(O)C(=O)N1CCCCN (stereo not drawn) ?
A: > 128 µg/mL

Q: # iterate: CCC1C(c2ccc(C(F)(F)F)cc2)=C(O)C(=O)N1CCOCCN1C(=O)C(O)=C(c2ccc(C(F)(F)F)cc2)C1CC (stereo not drawn)
A: > 128 µg/mL
